This collection of values is drawn from ChEMBL document CHEMBL1765000.

Items are presented alongside their recorded IC50.
Biological target: TGF-beta receptor type-1 (Homo sapiens, UniProt P36897)
Sequence (P36897 whole entry, the tested form may be a part): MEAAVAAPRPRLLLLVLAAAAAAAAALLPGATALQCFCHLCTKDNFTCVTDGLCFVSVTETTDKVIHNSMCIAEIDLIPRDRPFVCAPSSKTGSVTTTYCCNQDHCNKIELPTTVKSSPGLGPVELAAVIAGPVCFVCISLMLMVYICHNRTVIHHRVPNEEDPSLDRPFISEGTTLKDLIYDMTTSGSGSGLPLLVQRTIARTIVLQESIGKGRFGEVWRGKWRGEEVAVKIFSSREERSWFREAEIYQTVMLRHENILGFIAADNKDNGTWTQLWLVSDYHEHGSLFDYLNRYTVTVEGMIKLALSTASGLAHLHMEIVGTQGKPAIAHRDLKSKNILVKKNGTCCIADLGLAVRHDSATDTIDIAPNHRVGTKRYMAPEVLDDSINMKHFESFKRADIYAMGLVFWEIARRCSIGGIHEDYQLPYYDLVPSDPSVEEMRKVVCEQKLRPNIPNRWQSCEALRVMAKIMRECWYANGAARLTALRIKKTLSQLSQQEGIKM
Experiment: Inhibition of human recombinant GST-fused ALK5 expressed in Sf9 cells
Readout Type: IC50 (nM)

- Cc1cccc(-c2nn(CCC(=O)Nc3cccc(C#N)c3)cc2-c2ccc3ncccc3c2)n1: 101
- Cc1cccc(-c2nn(CCC(=S)Nc3ccccc3)cc2-c2ccc3ncccc3c2)n1: 88
- Cc1cccc(-c2nn(CCC(=S)Nc3cccc(C#N)c3)cc2-c2ccc3ncccc3c2)n1: 232
- Cc1cccc(-c2nn(CCC(=O)Nc3ccccc3)cc2-c2ccc3ncccc3c2)n1: 25
- Cc1cccc(-c2nn(CC(=S)Nc3ccccc3)cc2-c2ccc3ncccc3c2)n1: 94
